Target: Mu Opioid Receptor (MOR) (Homo sapiens)
Sequence (P35372 whole entry): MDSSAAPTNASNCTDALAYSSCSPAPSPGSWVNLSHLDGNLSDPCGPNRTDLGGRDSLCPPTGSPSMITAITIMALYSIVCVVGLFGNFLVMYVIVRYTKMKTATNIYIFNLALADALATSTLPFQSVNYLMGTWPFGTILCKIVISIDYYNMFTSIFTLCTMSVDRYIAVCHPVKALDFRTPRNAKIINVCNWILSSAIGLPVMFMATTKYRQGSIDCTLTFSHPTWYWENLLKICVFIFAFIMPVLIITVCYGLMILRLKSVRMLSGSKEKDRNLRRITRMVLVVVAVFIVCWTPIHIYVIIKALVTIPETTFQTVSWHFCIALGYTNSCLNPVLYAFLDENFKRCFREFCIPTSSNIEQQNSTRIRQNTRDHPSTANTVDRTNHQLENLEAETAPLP
Assay: biochemical
Conditions: read-out: MOR EMAX (35S-GTPγS)
EXPERIMENTAL_ENDPOINT: Emax (%)

compound="NC(=O)[C@H](Cc1ccccc1)NC(=O)[C@H](Cc1ccccc1)NC(=O)[C@@H]1CCCN1C(=O)[C@@H](N)Cc1ccc(O)cc1 [Endomorphin-2]" result_units=% reported_measurement=97
compound="COc1cccc(C2(O)CCCCC2CN(C)C)c1 (stereo not shown)" result_units=% reported_measurement=25.5
compound=COc1ccc2c3c1O[C@H]1C(=O)CC[C@@]4(O)[C@@H](C2)N(C)CC[C@]314 result_units=% reported_measurement=90
compound=CC[C@@H](c1cccc(O)c1)[C@@H](C)CN(C)C result_units=% reported_measurement=73

Origin of the recorded values: paper PMC6553708
